In this section, each of the molecules is paired with its reported remaining activity at 1 µM.
Target: CK1d (Homo sapiens, UniProt P48730)
Construct: purchased ReactionBiology
Sequence (P48730 whole entry): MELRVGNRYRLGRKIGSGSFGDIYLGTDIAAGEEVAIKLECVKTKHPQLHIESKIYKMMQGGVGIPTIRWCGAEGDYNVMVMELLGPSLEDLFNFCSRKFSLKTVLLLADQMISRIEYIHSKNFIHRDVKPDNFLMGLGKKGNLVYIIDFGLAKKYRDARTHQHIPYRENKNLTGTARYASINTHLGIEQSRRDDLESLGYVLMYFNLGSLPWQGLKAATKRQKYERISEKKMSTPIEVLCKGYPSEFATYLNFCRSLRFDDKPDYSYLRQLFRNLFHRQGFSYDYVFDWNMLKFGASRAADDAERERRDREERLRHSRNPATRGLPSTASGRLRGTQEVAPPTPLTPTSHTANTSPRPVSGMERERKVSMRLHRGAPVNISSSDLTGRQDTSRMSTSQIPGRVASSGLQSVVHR
Experiment: Kinase activity test (ReactionBiology), % enzyme activity relative to DMSO
Type: biochemical
Settings: CK1d; 1 uM; replicate Data 1; read-out: % Enzyme Activity (relative to DMSO controls), Data 1
Report only the number, with the unit % understood.

CC(=O)O[C@H]1C[C@@]2(C)[C@@H](C[C@@H](O)[C@H]3[C@@]4(C)CC[C@@H](O)[C@@H](C)[C@@H]4CC[C@@]32C)/C1=C(\CCC=C(C)C)C(=O)O = 95.3

Moving on to the next molecule.
**Query** Could you share which remaining activity at 1 µM value was measured for O=C(O)c1ccccc1O ?
**Result** 107

---

In this section, each of the compounds is paired with its reported % Enzyme Activity (relative to DMSO controls), Data 2.
Target: DAPK1 (Homo sapiens)
Construct: purchased ReactionBiology
Assay: Kinase activity test (ReactionBiology), % enzyme activity relative to DMSO
Assay type: biochemical
Details: DAPK1; 1 uM; replicate Data 2
Report only the number, with the unit % understood.

Solved cases below.
OC(Cn1cncn1)(Cn1cncn1)c1ccc(F)cc1F = 97.44
COC(=O)N[C@H](C(=O)N[C@@H](Cc1ccccc1)[C@@H](O)CN(Cc1ccc(-c2ccccn2)cc1)NC(=O)[C@@H](NC(=O)OC)C(C)(C)C)C(C)(C)C = 101.84
Cn1c(=O)c2[nH]cnc2n(C)c1=O = 109.23
O=C1C(O)=C([C@H]2CC[C@H](c3ccc(Cl)cc3)CC2)C(=O)c2ccccc21 = 95.64

Moving on to the next compound.
**Query** Could you share which % Enzyme Activity (relative to DMSO controls), Data 2 value was measured for C[C@]12CCC(=O)C=C1CC[C@@H]1[C@@H]2[C@@H](O)C[C@@]2(C)[C@H]1CC[C@]2(O)C(=O)CO [Hydrocortisone] ?
**Result** 112.22

---

In this section, each of the compounds is paired with its reported % Enzyme Activity (relative to DMSO controls), Average.
Biological target: DAPK1 (Homo sapiens, UniProt P53355)
Construct: purchased ReactionBiology
Sequence (P53355 whole entry): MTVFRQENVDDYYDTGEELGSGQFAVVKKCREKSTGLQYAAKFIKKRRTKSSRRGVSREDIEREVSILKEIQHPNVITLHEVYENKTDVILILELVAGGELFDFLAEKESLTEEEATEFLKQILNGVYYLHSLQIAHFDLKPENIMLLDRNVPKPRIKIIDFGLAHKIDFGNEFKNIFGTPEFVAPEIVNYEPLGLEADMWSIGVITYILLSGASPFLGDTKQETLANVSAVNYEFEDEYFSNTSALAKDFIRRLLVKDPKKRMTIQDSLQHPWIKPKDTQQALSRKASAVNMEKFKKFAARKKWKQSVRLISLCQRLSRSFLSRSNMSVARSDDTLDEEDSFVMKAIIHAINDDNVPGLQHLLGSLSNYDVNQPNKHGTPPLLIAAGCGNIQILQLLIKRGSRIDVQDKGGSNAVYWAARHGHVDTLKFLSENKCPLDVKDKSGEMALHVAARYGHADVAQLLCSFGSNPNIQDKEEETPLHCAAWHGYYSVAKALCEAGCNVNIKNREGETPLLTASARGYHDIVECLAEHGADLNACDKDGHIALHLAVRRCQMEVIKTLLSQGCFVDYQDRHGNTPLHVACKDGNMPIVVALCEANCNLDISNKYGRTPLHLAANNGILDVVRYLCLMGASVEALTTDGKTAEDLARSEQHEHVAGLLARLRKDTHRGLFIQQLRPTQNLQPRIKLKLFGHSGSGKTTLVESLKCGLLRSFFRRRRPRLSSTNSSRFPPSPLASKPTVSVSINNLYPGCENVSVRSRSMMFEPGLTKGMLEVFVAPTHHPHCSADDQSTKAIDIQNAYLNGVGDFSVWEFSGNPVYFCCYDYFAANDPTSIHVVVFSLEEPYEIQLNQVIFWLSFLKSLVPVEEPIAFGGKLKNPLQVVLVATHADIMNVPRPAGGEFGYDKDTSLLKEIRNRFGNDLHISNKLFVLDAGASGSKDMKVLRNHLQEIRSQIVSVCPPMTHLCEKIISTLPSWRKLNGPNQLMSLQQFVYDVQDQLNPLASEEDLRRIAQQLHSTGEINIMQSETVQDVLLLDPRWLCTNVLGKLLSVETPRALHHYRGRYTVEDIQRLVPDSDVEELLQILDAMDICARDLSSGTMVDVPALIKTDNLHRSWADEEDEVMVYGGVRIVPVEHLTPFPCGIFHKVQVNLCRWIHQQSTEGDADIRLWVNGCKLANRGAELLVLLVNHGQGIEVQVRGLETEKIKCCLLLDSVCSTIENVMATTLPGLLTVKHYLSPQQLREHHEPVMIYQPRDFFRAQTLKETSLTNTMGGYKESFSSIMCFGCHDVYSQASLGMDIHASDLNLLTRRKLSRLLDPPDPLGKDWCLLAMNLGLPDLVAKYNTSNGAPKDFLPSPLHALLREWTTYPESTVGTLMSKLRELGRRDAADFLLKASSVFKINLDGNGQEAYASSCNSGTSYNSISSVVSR
Assay: Kinase activity test (ReactionBiology), % enzyme activity relative to DMSO
Assay type: biochemical
Conditions: DAPK1; 10 uM; Average
Report only the number, with the unit % understood.

O=C1C(O)=C([C@H]2CC[C@H](c3ccc(Cl)cc3)CC2)C(=O)c2ccccc21 = 91.80
N[C@H]1C(O)O[C@H](CO)[C@@H](O)[C@@H]1O (stereo partly shown) = 123.43
CS(=O)(=O)c1ccc(C2=C(c3ccccc3)C(=O)OC2)cc1 = 91.65

Moving on to the next compound.
**Query** Could you share which % Enzyme Activity (relative to DMSO controls), Average value was measured for C[C@]12CCC(=O)C=C1CC[C@@H]1[C@@H]2[C@@H](O)C[C@@]2(C)[C@H]1CC[C@]2(O)C(=O)CO [Hydrocortisone] ?
**Result** 104.62

---

Target: CK1d (Homo sapiens)
Construct: purchased ReactionBiology
Experiment: Kinase activity test (ReactionBiology), % enzyme activity relative to DMSO
Type: biochemical
Details: CK1d; 1 uM; Average; read-out: % Enzyme Activity (relative to DMSO controls), Average
In this section, each of the compounds is paired with its reported remaining activity at 1 µM.
Report only the number, with the unit % understood.

CCN(CC)Cc1cc(Nc2ccnc3cc(Cl)ccc23)ccc1O [Amodiaquine, reference compound] = 107
NC(=O)c1cccnc1 [Niacinamide, reference compound] = 113
CC(=O)O[C@H]1C[C@@]2(C)[C@@H](C[C@@H](O)[C@H]3[C@@]4(C)CC[C@@H](O)[C@@H](C)[C@@H]4CC[C@@]32C)/C1=C(\CCC=C(C)C)C(=O)O = 100
Cc1ccc(C(=O)c2cc(O)c(O)c([N+](=O)[O-])c2)cc1 [Tolcapone, reference compound] = 91.7
Cc1nc(Nc2ncc(C(=O)Nc3c(C)cccc3Cl)s2)cc(N2CCN(CCO)CC2)n1 [Dasatinib, reference compound] = 98.7

**Query** Lab note: need remaining activity at 1 µM for NCCCCCC(=O)O on CK1d (Homo sapiens), anyone have it?
**Result** 118

**Query** Lab note: need remaining activity at 1 µM for CC(C)(C)NC(=O)[C@@H]1C[C@@H]2CCCC[C@@H]2CN1C[C@@H](O)[C@H](Cc1ccccc1)NC(=O)[C@H](CC(N)=O)NC(=O)c1ccc2ccccc2n1 [Saquinavir, reference compound] on CK1d (Homo sapiens), anyone have it?
**Result** 109

**Query** Lab note: need remaining activity at 1 µM for O=C(O)c1ccccc1O on CK1d (Homo sapiens), anyone have it?
**Result** 105

**Query** Lab note: need remaining activity at 1 µM for Cc1cccc(C)c1OCC(=O)N[C@@H](Cc1ccccc1)[C@@H](O)C[C@H](Cc1ccccc1)NC(=O)[C@H](C(C)C)N1CCCNC1=O [Lopinavir, reference compound] on CK1d (Homo sapiens), anyone have it?
**Result** 107

**Query** Lab note: need remaining activity at 1 µM for CCCc1nc(C)c2c(=O)[nH]c(-c3cc(S(=O)(=O)N4CCN(CC)CC4)ccc3OCC)nn12 on CK1d (Homo sapiens), anyone have it?
**Result** 102

**Query** Lab note: need remaining activity at 1 µM for C[C@]12CC[C@@H]3c4ccc(O)cc4CC[C@H]3[C@@H]1CC[C@@H]2O [Estradiol, reference compound] on CK1d (Homo sapiens), anyone have it?
**Result** 101

**Query** Lab note: need remaining activity at 1 µM for Oc1cc(Cl)ccc1Oc1ccc(Cl)cc1Cl [Triclosan, reference compound] on CK1d (Homo sapiens), anyone have it?
**Result** 96.6

**Query** Lab note: need remaining activity at 1 µM for CC/C(=C(/CC)c1ccc(O)cc1)c1ccc(O)cc1 [Diethylstilbestrol, reference compound] on CK1d (Homo sapiens), anyone have it?
**Result** 106

**Query** Lab note: need remaining activity at 1 µM for N[C@@H](Cc1cc(I)c(Oc2cc(I)c(O)c(I)c2)c(I)c1)C(=O)O [Thyroxine, reference compound] on CK1d (Homo sapiens), anyone have it?
**Result** 106

**Query** Lab note: need remaining activity at 1 µM for Nc1ncnc2c1ncn2[C@@H]1O[C@H](CO)[C@@H](O)[C@H]1O [Adenosine, reference compound] on CK1d (Homo sapiens), anyone have it?
**Result** 87.7
